Cited source for all entries: ChEMBL document CHEMBL5150077

target: Tyrosine-protein kinase JAK1 (Homo sapiens); experiment: Inhibition of recombinant human JAK1 using MGEEPLYWSFPAKKK as substrate incubated for 40 mins in presence of Mg/ATP mixture by [gamma p33]-ATP based scintillation counting method
Sequence (P23458 whole entry): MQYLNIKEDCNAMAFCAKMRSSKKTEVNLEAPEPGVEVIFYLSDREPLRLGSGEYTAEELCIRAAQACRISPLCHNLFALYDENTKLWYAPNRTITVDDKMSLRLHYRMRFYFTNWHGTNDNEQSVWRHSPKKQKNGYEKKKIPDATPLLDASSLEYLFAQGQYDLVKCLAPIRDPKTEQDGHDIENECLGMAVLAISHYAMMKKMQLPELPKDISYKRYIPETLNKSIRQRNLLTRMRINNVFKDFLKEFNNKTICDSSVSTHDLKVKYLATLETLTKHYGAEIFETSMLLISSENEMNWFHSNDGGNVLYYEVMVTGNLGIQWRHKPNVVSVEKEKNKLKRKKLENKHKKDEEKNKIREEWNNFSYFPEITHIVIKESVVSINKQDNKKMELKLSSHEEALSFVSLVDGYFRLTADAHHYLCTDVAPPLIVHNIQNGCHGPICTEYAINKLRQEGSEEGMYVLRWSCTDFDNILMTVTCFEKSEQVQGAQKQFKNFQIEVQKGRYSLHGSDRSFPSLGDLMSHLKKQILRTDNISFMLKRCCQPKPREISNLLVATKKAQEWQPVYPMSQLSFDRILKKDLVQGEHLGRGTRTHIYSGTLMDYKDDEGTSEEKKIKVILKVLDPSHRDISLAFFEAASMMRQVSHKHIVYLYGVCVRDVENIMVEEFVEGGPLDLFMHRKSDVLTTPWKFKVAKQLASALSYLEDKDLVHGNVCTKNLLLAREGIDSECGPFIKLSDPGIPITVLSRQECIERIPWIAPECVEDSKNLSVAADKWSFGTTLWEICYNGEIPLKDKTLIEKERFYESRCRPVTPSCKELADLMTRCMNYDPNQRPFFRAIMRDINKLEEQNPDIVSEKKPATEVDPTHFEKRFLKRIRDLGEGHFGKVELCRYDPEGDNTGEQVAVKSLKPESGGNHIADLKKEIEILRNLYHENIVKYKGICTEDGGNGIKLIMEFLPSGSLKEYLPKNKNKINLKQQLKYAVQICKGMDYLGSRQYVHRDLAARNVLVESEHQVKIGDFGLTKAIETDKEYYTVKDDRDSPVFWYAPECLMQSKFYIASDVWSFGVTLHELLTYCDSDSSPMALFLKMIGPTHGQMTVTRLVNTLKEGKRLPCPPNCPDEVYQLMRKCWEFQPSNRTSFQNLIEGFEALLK
So I've got a bunch of compounds here, and I need their IC50 values.
One number for each entry, in nM.

structure	units-text	IC50
O=C(Nc1nc2cccc([C@H]3CCC4(C3)CN(C(=O)[C@@H]3CC3(F)F)C4)n2n1)C1CC1	nM	63
O=C(Nc1nc2cccc([C@H]3CC[C@H](NC(=O)[C@H]4CC4(F)F)CC3)n2n1)C1CC1	nM	341
O=C(Nc1nc2cccc(C3=CC[C@@H](NC(=O)[C@H]4CC4(F)F)CC3)n2n1)C1CC1	nM	166

Turning now to a further record.
Query :: Reported IC50, compound O=C(Nc1nc2cccc(C3=CC[C@@H](NC(=O)[C@@H]4CC4(F)F)CC3)n2n1)C1CC1 : ____
Result :: 163
